Where do the numbers come from? From patent US20210045385A1.

Parameter Galium plant response rating (0 to 100 scale): see the listing below.
Test system: galium (catchweed bedstraw, Galium aparine)
MEASUREMENT PROTOCOL: Test A postemergence, visual plant response rating
Type: in vivo
APPLIED CONDITIONS: 500 g ai/ha, postemergence; 0 is no effect, 100 is complete control
ATTRIBUTE MEASURED: Galium plant response rating (0 to 100 scale)

| COMPOUND | ENDPOINT RESULT |
| --- | --- |
| CON=C(c1c(O)c(C)nn(C)c1=O)c1cccc2ccsc12 (single isomer, unassigned) | 100 |
| C#CCON=C(c1c(O)c(C)nn(C)c1=O)c1cc(Br)cc2ccccc12 | 100 |
| CO/N=C(/c1cccc(F)c1)c1c(O)c(C)nn(C)c1=O | 80 |
| CON=C(c1ccccc1C1CC1)c1c(O)c(C)nn(C)c1=O | 90 |
| C=CCO/N=C(/c1c(O)c(C)nn(C)c1=O)c1ccc(F)c2ccccc12 | 100 |
